// values below are reported Sweetener Concentration of positive control surpassed by test sample
- Tested on: perception of the sweet taste of an aqueous solution of sweetener in humans
- Experiment Summary: Two-alternative forced choice "sip and spit" method (2AFC)
- Assay type: in vivo
- Condition Details: test sample 4% fructose; positive control fructose; compound 20 ppm
- Procedure: The taste test panelists used in the Examples 1-3 were selected using a sensory acuity screening program. Candidate taste panelists were recruited, with prescreening and personal interviews, and were assessed and for their ability to detect, recognize and differentiate basic taste attributes or mixtures thereof as part of a standardized acuity test. […] Panelists were instructed not to eat or drink (except water) for at least 1 h before the test. […] Data were analyzed using binomial probabilities. […]
Readout Kind: Sweetener Concentration of positive control surpassed by test sample

> print(dat)
                                   molecule  value.reported
1  COc1ccc(C2CC(=O)c3c(O)cc(F)cc3O2)cc1O (stereo not shown)          > 4.4%
2  CCCOc1ccc(C2CC(=O)c3c(O)cc(O)cc3O2)cc1O (stereo not shown)          > 4.4%
3  COc1ccc(C2CC(=O)c3c(O)cc(OCCCC(=O)O)cc3O2)cc1O (stereo not shown)          > 4.4%
4  COc1ccc(C2CC(=O)c3c(O)cc(OCCCS(=O)(=O)[O-])cc3O2)cc1O.[K+] (stereo not shown)          > 4.4%

Origin of the recorded values: patent US20150050410A1
